assay: yeast display, Sf9 membrane polyspecificity reagent, FACS + sequencing; frameworks hold sequencing errors
readout label: polyreactivity (PSR sort gate)

Example cases with answers are listed next.
* QVQLVESGGGLVQAGGSLRLSCAASGFIFDGNAMGWYRQAPGKERELVAAIRSGGRPTYAPSVKGRFTSSRDNAKNTVDLQMNSLNPEDTAVYYCAARSIYPYYYRRDNRYYYWGQGTQVTVSS | high polyreactivity
* QVQLVESGGGLVQAGGSLRLSCAASGSTFRYYVMGWYRQEPGKEREFVAAISAGGGRTYYADSVKGRFTISRDNSKNTVYLQMNSLKPEDTAVYYCAATKGNILRRSRYDYWGQGTQVTVSS | high polyreactivity
* QVQLVESGGGLVQAGGSLRLSCAASGSILADYAMGWYRQAPGKERELVAGISSGGSTNYADSVKGRFTISRDNAKNTVYLQMNSLKPEDTAVYYCNADQDFLFIGYLFDYWGQGTQVTVSS | low polyreactivity
* QVQLVESGGGLVQAGGSLRLSCAASGSIFPGYAMGWYRQAPGKERELVATITWSASETYYADSVKGRFTISRDNAKYTVYLQMNSLKPEDTAVYYCNAEVYELFVVYSALDYWGQGTQVTVSS | low polyreactivity
* QVQLVESGGGLVQAGGSHRLSCAASGSILWENAMGWYIQAPRKERELVATISVSGGGTYYADSVKGRFTISRDKAKNTDYLQMNSLKPEDTAVYYCNARYGYESQGWEDYWGQGTQVTVSS | low polyreactivity
* QVQLVESGGGLVQAGGSLRLSCAASGRTFGYNAMGWYRQAPGKERELVAAIRYSGGSTYYADSVKGRFTISRDNAKNTVYLQMNSLKPEDTAVYYCAKETRRYYRGYYYWGQGTQVTVSS | high polyreactivity
* QVQLVESGGGLVQAGGSLRLSCAPSGRTFNPYALGWYRPAPGKEREFVYADSVKGRFTISRDNAKNTVYLQMNSLKPEDTAVYYCAADVYPDTLHPYNYDYWGQGTQVTLSS | low polyreactivity
* QVQLVESGGGLVQAGGSLRLSCAASGFIFIANGMGWNSQAPGKERALVAAITSGGGNTYYADSVKGRFTISRDNAKNTVYLQMNSLKPEDTAVYYCNAPSYGKFDYWGQGTQVTVSS | high polyreactivity

According to the records, this sequence QVQLVESGGGLVQAGGSLRLSCASSGRTFEDYTMGWYRQAPGKVWEWVAAITGGGSTNYADSVKGRFTISRDNAKNTVYLQMYSQKPEDTAVYYCAAHYRYNWFRRYSYWGQGTQETVSS displays polyreactivity (PSR sort gate) of high polyreactivity

According to the records, this sequence QVQLVESGGGLVQAGGSLRLSCAASGSILTVYSMGWYRQAPGKERELVARIRSGDRTYYADSVKGRFTISRDNAKNTVYLQMNSLKPEDTAVYYCAAGSQRRYYHTNWDSFNYWGQGTQVTVSS displays polyreactivity (PSR sort gate) of low polyreactivity

According to the records, this sequence QVQLVESGGGLVQAGCSLRLTCAASGFIFYYNAMGWYRQAPGKQKELVAAISWSDGGTYYADSVKGRFTISRDNAKNTVSLQMNRLKPEDTAVYYFSGDIDNWSEYDYWGQGTQVTVSS displays polyreactivity (PSR sort gate) of low polyreactivity

###

experiment: yeast display, Sf9 membrane polyspecificity reagent, FACS + sequencing; frameworks hold sequencing errors
readout label: polyreactivity (PSR sort gate)

Example cases with answers are listed next.
• QVQHVESGGGLVQAGGSLRLSCAASGRIFVAYTMGWYRQAPGKERELVAGISRSGGSTYYADSVKGRFTISRDNAKNTVYLQMNNLKPEDTAVYYCAVGNWRLFPYGYWGQGTQVTVSS = high polyreactivity
• QVQLVESGGGLVQAGGSLRLSCAASGSIFARYAMGWYRQAPGKERELVAAITGRGGSTYYADSVKGRFTISRDNAKNTVYLHMNSLKPEDTAVYYCAPKDVRRTRGGSGDYWGQGTQVTVSS = high polyreactivity
• QVQLVESGGGLVQAGGSLRLSCAASGRIFSYYTMGWYRQAPGKERELVAAITSGDSTNYADSVKGRFTISRDNAKNTVYLQMNSLKPEDTAVYYCNARYSGWRSRVGSSHRPDGYWGQGTQVTVSS = high polyreactivity
• QVQLVETGGGLVQAGGILRLSCAASGLTIIYYAMGWYRQSPGKERELVAAISGSVGSTYYADSVQGRFTISRDNAKNTVYLQMNSLKPEDTAVYYCNADRWGFGNVRKYDYWGQGTQVTVSS = low polyreactivity
• QVQLVESGGRLVQAGGSLRLSCAASGSIFAVNTMGWYRQAPGKERELVAAISQRGSSTYYADSVKGRFTISRDNAKNTVYLQMNSLKPEDTAVYYCAKRFIYGRYNYWGQGTQVTVSS = high polyreactivity
• QVQLVESGGGLVQAGGSLRLSCAASGSIFVTYAMGLYRQAPGKERELVAAITSSDRTKYADSVKGRFTISRDNAKNTVYVQMHSLKPEDTAVYYGAKVVRTRYYGGYDYWGQVTQVTVSS = high polyreactivity

According to the records, this sequence KVQLVESGGGLVQAGGSLRLSCAPSGSIFPLNARGWYSQAPGKERELVAAISESGGRTYYADSVKGRFTISRDNAKNTVYLQMNSLNPADTAVYHCATVRLARKSAPYDYWGQGTQVTVSS displays polyreactivity (PSR sort gate) of high polyreactivity

According to the records, this sequence QVQLVESGGGLVQAGGSLRLSCAASGSIFYPYAMGWYRQAPGKERELVATISSGVNTNYADSVKGRFTISRDNAKNTVYLQMNSLKPVDTAVYYCAARFRHSFRRGGGYNYDYWGQGTQVTVSS displays polyreactivity (PSR sort gate) of high polyreactivity

According to the records, this sequence QVQLVESGVGLVQAGGSLRLSCAASGSTFQWYAMGWYIQAPGKERELVAAINKSGGTTYYADSVKGRFTISRDNAKNTVYLLMNSLKPEDTAVYYCATDTPVVYQPGNMDYWGQGTQVTVSS displays polyreactivity (PSR sort gate) of low polyreactivity

According to the records, this sequence QFQLVESGGGLVQAGGSLRLSCAASGRTFWNYAMGWYRQAPGKERELVAAISVTGTNTYYADSVKGRFTISRDNAKNTVYLQMNSLKPEDTAVYYCAARGRPGLYYWGQGTQVTVSS displays polyreactivity (PSR sort gate) of high polyreactivity

According to the records, this sequence QVQLVESGGGLVQAGGSLRLSCAASGFTFFWNAMGWSRQAPGKERELVAVITFRGGDTYYADSVKGRFTISRDNAKNTVYLQMNSLKPEDTAVYYCNADWQSYGYLWHSSLYYYWGQGTQVTVSS displays polyreactivity (PSR sort gate) of low polyreactivity

###

assay: yeast display, Sf9 membrane polyspecificity reagent, FACS + sequencing; frameworks hold sequencing errors
readout label: polyreactivity (PSR sort gate)

Example cases with answers are listed next.
* QVQLVESGVGLVQAGGSLRLSCAASGYTFRTNVMGWYRQAPGKERELVATINWRGGSTYYADSVKGRFTISRDNAKNTVYLQMNSLKPEDTAVYYCAADPGPYYDWGYDYWGQGTQVTVSS | low polyreactivity
* QVQLVESGGGLVQAGGSLRLSCAASGFTFSKYAMGCSRQAPGKETELVAAISRSAGSTYYADSVKRRFTISREYAKNTVYLQMNSLKPEDTAVYYCARDNPRRPSGYNYSGQGTQVTVSS | high polyreactivity
* QVQLVESGGGLVQAGGSLRLSCAASGRIFGWYAMGWYRQAPGKEWELVAAITSGSRTSYADSVKGRFTISRDNAKNTDYLQMNSLNPEDTAVYYCARRSYGIYYRSADDSWGQGTQVTGSS | high polyreactivity
* QVQLVESWGGLVQAGGSLRLSCAASGSTISDNAMGWYRQAPGKERELVATIDDDGSTYYADSVKGRFTISRDNAKKTVYLQMNSLKPEDTAVYYCAAEWYGGYPFGYWGQGTQVTVSS | low polyreactivity
* QVQLVESGGGLVHAGGSLRLSCAASGFTFGYYALGWYRQAPGKERELVASISRSGGSTNYADSVKGRFTISRDNAKYTVYFQMNRLKPEDTAVYYCNKRVNTYRSGSRRYDYWGQGTQVTVSS | high polyreactivity

According to the records, this sequence QVQLVESGGGLVQAGGSLRLSCAASGIIFGRYTMGWSRQAPGKERELVAAITSSGITYYADSVKGRFTISRDNAKNTVYLQMNSLKPEDTAVYYCIADYSSPGYYWPYDYWGQGTQVTVSS displays polyreactivity (PSR sort gate) of low polyreactivity

According to the records, this sequence QVQLVESGGGLVQAGGSLRLSCAASGRTLVYAMGWYRQAPGKERELVATIYRGGNTYYADSVKGRFTISRDNAKNTVYLQMNSLKPEDTAVYYCNKPTYQWGQGTQVTVSS displays polyreactivity (PSR sort gate) of high polyreactivity

According to the records, this sequence QVQLVESGGGLVQAGGSLRLSCAASGLTFGKYAMGWYRQAPGKERELVAAISRRGGSTYYADSVKGRFTISRDNANNTVYLQMNSLKPEDTAVYFCNTDTKHTGLDYWGQGTQVTVSS displays polyreactivity (PSR sort gate) of high polyreactivity

According to the records, this sequence QDQLVESRGGLVQAGGRLRLSCAASGSIFASNTIGWYRQAPGKEREVVAGITKIGSSTYYADSVKGRFTISRDNAKNTVYLQMNSLKPEDTAVYYCNAYGPNIYSARYDYWGQGTQVTVSS displays polyreactivity (PSR sort gate) of low polyreactivity

According to the records, this sequence QVQLVESGGGIVQAGGSLRLSFAASGSIFEGNALGWYRQEPGKEMEFVAAITKRGGSTYYADSVKGRFTISRDNAKNTVYLQMIWLKPEDTAGYYCAADRSYPRAGRYNYWGQGTQVTVSS displays polyreactivity (PSR sort gate) of low polyreactivity

According to the records, this sequence QVQLVESGGGLVQAGGSLRLSCAASGSTFVLYAMGWYRQAPGKERELVAAINSAGSTNYADSVKGRFTISRDNAKNTVYLQMNSLNPEDTAVYYCAAEYYYSYVDRTYYIYDYWGQGTQVTVSS displays polyreactivity (PSR sort gate) of high polyreactivity
